# testedSystem: vitronectin receptor (Vn-R) (Homo sapiens, UniProt P05106+P06756)
# Construct: from tissue; host or cells: human placenta
# Sequence (P06756 31-889 limits assumed): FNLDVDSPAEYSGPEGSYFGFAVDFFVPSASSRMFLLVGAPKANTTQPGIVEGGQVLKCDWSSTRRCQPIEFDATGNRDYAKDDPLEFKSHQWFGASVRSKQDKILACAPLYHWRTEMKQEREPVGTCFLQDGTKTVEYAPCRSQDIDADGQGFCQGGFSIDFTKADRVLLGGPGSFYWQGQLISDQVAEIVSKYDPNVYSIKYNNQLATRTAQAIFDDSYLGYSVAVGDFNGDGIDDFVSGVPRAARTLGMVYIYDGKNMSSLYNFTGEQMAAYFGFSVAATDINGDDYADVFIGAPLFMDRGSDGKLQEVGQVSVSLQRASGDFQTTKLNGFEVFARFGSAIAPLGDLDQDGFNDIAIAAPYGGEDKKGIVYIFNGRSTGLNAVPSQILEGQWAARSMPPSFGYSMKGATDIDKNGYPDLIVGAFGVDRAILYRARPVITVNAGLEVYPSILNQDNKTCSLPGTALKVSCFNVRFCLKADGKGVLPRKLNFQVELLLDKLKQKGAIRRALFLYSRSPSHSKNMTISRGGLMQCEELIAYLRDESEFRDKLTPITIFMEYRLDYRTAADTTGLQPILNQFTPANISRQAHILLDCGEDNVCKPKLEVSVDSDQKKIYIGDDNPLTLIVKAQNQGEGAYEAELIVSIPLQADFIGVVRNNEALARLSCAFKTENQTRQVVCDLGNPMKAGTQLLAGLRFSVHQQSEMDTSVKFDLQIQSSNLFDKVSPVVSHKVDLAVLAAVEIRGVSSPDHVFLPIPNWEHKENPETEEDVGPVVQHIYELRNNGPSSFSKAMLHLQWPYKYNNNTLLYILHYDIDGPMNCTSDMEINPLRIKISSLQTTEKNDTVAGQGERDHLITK
# Sequence (P06756 891-1048 partner limits assumed): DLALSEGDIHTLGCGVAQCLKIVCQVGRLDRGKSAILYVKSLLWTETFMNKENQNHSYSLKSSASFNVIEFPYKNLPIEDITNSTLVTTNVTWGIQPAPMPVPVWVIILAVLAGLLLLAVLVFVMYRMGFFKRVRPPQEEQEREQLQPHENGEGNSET
# Sequence (P05106 27-788): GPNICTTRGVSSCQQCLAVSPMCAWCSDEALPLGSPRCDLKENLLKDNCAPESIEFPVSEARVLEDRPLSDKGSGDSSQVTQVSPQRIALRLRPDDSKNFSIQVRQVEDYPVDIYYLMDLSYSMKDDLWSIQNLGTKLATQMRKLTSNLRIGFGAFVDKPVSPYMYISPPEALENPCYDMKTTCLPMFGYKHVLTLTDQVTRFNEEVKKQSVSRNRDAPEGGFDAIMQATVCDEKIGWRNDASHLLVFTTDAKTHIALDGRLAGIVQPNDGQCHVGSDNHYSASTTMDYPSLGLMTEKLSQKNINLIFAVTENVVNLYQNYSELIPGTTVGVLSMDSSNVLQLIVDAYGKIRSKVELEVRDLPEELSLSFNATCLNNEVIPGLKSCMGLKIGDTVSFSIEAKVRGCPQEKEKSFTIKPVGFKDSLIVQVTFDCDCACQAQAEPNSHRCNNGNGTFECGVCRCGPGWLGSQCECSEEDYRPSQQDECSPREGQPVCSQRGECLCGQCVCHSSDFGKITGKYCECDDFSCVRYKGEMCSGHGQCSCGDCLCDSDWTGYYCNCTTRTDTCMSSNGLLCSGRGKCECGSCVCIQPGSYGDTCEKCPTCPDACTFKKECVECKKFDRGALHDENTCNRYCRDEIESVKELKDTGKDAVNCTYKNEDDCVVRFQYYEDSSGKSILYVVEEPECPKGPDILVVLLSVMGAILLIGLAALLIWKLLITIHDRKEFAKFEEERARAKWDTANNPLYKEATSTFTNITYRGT
# experimentNotes: Liposome attachment assay for vitronectin receptor
# conditionSet: purified receptor from human placenta, read-out: VnR Binding (IC50)
metric: IC50
The reply must contain the numeric value and, after it, the unit.

Enquiry: Bench note: what IC50 did GHRGDLRDASG show?
Return: 36.8 µM

---

# testedSystem: GP IIb/IIIa (Homo sapiens, UniProt P05106+P08514)
# Sequence (P08514 32-887 limits assumed): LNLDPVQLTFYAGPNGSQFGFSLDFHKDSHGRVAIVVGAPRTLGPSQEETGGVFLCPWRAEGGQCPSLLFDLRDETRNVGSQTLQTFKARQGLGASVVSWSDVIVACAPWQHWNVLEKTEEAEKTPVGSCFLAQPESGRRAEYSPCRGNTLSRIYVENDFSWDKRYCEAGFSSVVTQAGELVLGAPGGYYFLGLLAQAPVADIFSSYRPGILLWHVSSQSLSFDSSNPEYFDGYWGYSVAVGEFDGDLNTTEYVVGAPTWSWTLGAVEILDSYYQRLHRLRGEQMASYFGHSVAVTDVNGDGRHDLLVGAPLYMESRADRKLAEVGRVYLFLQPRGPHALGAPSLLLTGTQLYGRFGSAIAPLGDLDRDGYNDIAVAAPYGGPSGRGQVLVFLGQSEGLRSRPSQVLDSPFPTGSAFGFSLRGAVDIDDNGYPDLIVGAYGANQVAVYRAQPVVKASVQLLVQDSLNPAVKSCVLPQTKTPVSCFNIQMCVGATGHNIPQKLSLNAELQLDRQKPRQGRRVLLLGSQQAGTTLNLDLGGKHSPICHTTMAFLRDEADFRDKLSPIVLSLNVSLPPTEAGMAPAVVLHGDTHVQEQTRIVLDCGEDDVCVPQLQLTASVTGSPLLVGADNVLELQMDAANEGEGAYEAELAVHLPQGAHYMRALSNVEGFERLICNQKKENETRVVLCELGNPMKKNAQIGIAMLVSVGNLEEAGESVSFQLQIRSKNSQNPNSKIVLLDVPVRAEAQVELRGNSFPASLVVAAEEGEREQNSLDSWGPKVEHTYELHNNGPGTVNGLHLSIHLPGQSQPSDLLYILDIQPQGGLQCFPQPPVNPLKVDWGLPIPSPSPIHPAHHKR
# Sequence (P08514 891-1039 partner limits assumed): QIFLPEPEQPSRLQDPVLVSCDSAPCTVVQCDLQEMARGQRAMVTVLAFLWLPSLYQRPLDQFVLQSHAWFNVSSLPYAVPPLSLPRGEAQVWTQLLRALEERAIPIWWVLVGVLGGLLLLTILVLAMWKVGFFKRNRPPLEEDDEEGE
# Sequence (P05106 27-788): as the sequence (P05106 27-788) above
# experimentNotes: Liposome attachment assay for GP IIb/IIIa
# conditionSet: read-out: IIb/IIIa Binding (IC50)
metric: pIC50
One number for each entry, as −log10 of the molar value.

Enquiry: Quick one: pIC50 for GPGRGDSPCA ?
Return: 4.70
